System: LASV
METHOD NOTES: organism not typed
Format: cell-based
COND: HeLa
ENDPOINT NAME: EC50

CC(C)C[C@H](NC(=O)c1cc2ccccc2o1)C(=O)N[C@H]1CC[C@@H](C)N(S(=O)(=O)c2ccccn2)CC1=O : > 100 µM
